Reference source for all entries: patent US20260242478A1

# MEASURED ON: T1, PSMA Fab
# T1 construct: also called Anti-PSMA Fab; 006 PSMA Fab
# PROTOCOL DETAILS: clonal phage ELISA on captured PSMA Fab pre-incubated with PSMA antigen (competitor: PSMA)
Where no end group is shown, it is not given here.
ENDPOINT LABEL: Phage binding ELISA signal, Anti-PSMA Fab with PSMA antigen

BINDER	REPORTED
WDRLCIPPWMCDVM (Peptide-180 library clone, tested as clonal phage supernatant (peptide fused to the pIII filament of the bacteriophage)) [Phage-2346]	0.0803
AERWCIPSWMCELA (Peptide-180 library clone, tested as clonal phage supernatant (peptide fused to the pIII filament of the bacteriophage)) [Phage-2357]	0.0756
IDHWCTPAWMCRGF (Peptide-180 library clone, tested as clonal phage supernatant (peptide fused to the pIII filament of the bacteriophage)) [Phage-2352]	0.0775
PVKWCVPPWMCAAT (cysteine pairing not given here; also: displayed on bacteriophage by fusion to pIII, Peptide-180 library clone, tested as clonal phage supernatant (peptide fused to the pIII filament of the bacteriophage)) [Phage-2358]	0.0663
NDHWCIPPWMCAPY (cysteine pairing not given here; also: displayed on bacteriophage by fusion to pIII, Peptide-180 library clone, tested as clonal phage supernatant (peptide fused to the pIII filament of the bacteriophage)) [Phage-2354]	0.0707
PMKWCIPEWMCIAS (Peptide-180 library clone, tested as clonal phage supernatant (peptide fused to the pIII filament of the bacteriophage)) [Phage-2351]	0.102
MDRWCIPEWMCARH (cysteine pairing not given here; also: displayed on bacteriophage by fusion to pIII, Peptide-180 library clone, tested as clonal phage supernatant (peptide fused to the pIII filament of the bacteriophage)) [Phage-2350]	0.0537
SENWCIPNWMCSGL (Peptide-180 library clone, tested as clonal phage supernatant (peptide fused to the pIII filament of the bacteriophage)) [Phage-2347]	0.0725
MEKWCTPSWMCQWM (Peptide-180 library clone, tested as clonal phage supernatant (peptide fused to the pIII filament of the bacteriophage)) [Phage-2348]	0.0828
FENWCTPSWMCSGF (Peptide-180 library clone, tested as clonal phage supernatant (peptide fused to the pIII filament of the bacteriophage)) [Phage-2355]	0.0807
VPKWCTPTWMCIHM (Peptide-180 library clone, tested as clonal phage supernatant (peptide fused to the pIII filament of the bacteriophage)) [Phage-2356]	0.0649
SEEWCIPPWMCLGR (Peptide-180 library clone, tested as clonal phage supernatant (peptide fused to the pIII filament of the bacteriophage)) [Phage-2353]	0.0756
FDMLCNPKWMCEGF (Peptide-180 library clone, tested as clonal phage supernatant (peptide fused to the pIII filament of the bacteriophage)) [Phage-2345]	0.0643
LSNWCVPLWMCEMV (Peptide-180 library clone, tested as clonal phage supernatant (peptide fused to the pIII filament of the bacteriophage)) [Phage-2349]	0.0796
LMNWCTPAWMCTGF (Peptide-180 library clone, tested as clonal phage supernatant (peptide fused to the pIII filament of the bacteriophage)) [Phage-2344]	0.0919
